molecular target: human 5-HT6 receptor (Homo sapiens, UniProt P50406); construct: expressed in transfected cells; host or cells: HEK293 (G-418 selected), membrane preparation; test: 5-HT6 receptor binding assay ([3H]-LSD, SPA, membranes of transfected HEK293 cells)
Sequence (P50406 whole entry): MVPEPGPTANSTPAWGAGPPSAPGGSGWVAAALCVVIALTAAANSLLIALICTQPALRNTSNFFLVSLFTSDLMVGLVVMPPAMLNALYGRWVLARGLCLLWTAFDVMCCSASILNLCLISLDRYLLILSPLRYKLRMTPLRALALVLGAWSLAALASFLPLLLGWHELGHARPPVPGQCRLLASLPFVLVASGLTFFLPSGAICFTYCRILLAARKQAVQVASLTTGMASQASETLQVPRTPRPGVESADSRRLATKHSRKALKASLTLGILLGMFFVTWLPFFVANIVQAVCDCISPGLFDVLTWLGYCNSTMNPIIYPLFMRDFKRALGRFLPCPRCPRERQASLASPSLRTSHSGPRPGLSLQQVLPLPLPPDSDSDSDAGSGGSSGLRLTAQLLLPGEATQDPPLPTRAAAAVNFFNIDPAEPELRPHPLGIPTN
Counter-ions that a name gives are not always drawn.
assayMetric: Ki (nM)
Unit nM implied. Number only.

Query string: Which measured Ki value corresponds to CN1CCc2cccc3c2c(cn3S(=O)(=O)c2ccccc2)C1 [Example 13, hydrochloride] ?
Result string: 6

###

target: human 5-HT6 receptor (Homo sapiens, UniProt P50406); construct: expressed in transfected cells; host or cells: HEK293 (G-418 selected), membrane preparation; test: 5-HT6 receptor binding assay ([3H]-LSD, SPA, membranes of transfected HEK293 cells); conditions: read-out: Binding affinity (Ki) at the h5-HT6 receptor
Counter-ions that a name gives are not always drawn.
assayMetric: pKi
# log scale: pKi equals minus log10 of the concentration in mol/L

Query string: Name the recorded pKi for CCN1Cc2cccc3c2c(cn3S(=O)(=O)c2ccccc2)C1 [Example 5, trifluoroacetate] .
Result string: 7.68

Values from patent US8138333B2
